assay: in vivo; conditions: Sprague-Dawley, rat, po, 1 mg/kg
reported_metric: bioavailability (%)
Supply the numeric figure in %, leaving out any unit text.

compound="COc1cc2nc(N3CCN(C(=O)c4ccco4)CC3)nc(N)c2cc1OC [Prazosin, prazosin]" unit_annotation=% readout_value=100

Next compound, please.
# return recorded bioavailability for input COc1cc2nc(N3CCN(C(=O)C4COc5ccccc5O4)CC3)nc(N)c2cc1OC (centres unmarked) [Doxazosin, doxazosin]
100

====

test: in vivo; settings: Sprague-Dawley, rat, po, 1 mg/kg
This listing pairs compounds with measured AUC(0-t).
Supply the numeric figure in ng·h/mL, leaving out any unit text.

compound=COc1cc2nc(N3CCN(C(=O)c4ccco4)CC3)nc(N)c2cc1OC reported_metric=AUC(0-t) unit_annotation=ng·h/mL readout_value=247

Next compound, please.
# return recorded AUC(0-t) for input COc1cc2nc(N3CCN(C(=O)C4COc5ccccc5O4)CC3)nc(N)c2cc1OC (centres unmarked)
186
